src = paper PMC5540273

# System: CAMK4;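 note: KINOMEscan kinase panel screen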
# statedConditions: concentration: 1 μM, replicates: in singlicate; n = 1
Reported %Inh values follow for various compounds
Numeric only. Scale: %

Here's what some known entries look like.
molecule=CC(C)c1nc(-c2ccc(F)c(NS(=O)(=O)c3c(F)cccc3F)c2)c(-c2ccnc(Nc3ccc(N4CCOCC4)nc3)n2)s1 measuredresult=0
molecule=CC(=O)Nc1cn2nc(Oc3cccc(NC(=O)c4cccc(C(F)(F)F)c4)c3)ccc2n1 measuredresult=0
molecule=Cc1nn2c(=O)cc(N3CCO[C@H](C)C3)nc2n1Cc1cccc(Cl)c1Cl measuredresult=5

In: # lookup: %Inh of Fc1cc(Cl)ccc1Nc1ccnc2cc(-c3ccc(CN4CCOCC4)o3)ccc12
Out: 13

In: Try this compound next: CN(c1ccc2c(c1)nc(NCc1ccccc1)n2C)c1ccnc(Nc2ccc(CS(C)(=O)=O)cc2)n1.Cl
Out: 0
